Biological target: mouse DLL3 on CHO-K1-mDLL3 cells (mouse) (UniProt O88516)
Sequence (O88516 other isoform, or with tags, fused parts or gaps limits assumed): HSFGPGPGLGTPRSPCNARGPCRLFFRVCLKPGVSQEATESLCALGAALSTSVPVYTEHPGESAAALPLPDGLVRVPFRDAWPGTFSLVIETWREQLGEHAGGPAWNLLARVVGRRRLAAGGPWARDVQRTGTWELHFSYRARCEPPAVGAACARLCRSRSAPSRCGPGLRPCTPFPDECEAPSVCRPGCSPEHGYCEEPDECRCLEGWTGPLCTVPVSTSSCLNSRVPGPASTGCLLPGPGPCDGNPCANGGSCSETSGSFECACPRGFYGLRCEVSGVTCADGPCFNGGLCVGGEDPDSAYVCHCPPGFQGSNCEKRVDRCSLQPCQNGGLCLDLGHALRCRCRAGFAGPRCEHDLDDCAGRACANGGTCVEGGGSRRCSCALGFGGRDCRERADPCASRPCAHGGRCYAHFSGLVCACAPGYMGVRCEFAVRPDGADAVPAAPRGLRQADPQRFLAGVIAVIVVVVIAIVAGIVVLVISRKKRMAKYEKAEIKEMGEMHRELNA
Test: FACS, CHO-K1-mDLL3 cells, 0.16 nM antibody
property.measured: MFI (MFI)
# value in MFI; strip the unit string

Check out these entries, answers already filled in.
binder | property.measured | observed.measurement
Hab015VL4VH1a-hFc (scFv, part only; not given: scFv linker and human IgG1 Fc, V domains shown, not shown: another chain or arm of the molecule; a dimerising Fc or GST; small tags and cut ends) VL: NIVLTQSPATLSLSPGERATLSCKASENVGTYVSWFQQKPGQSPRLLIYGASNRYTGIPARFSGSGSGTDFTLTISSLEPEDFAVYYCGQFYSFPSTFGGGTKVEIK VH: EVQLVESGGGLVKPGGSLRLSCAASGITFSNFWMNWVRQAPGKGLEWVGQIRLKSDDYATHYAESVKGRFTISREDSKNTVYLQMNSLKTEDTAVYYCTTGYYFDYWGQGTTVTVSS | MFI | 339
Hab014VL1VH2-hFc (scFv, part only; not given: VL-VH linker and human IgG1 Fc, V domains shown, not shown: another chain or arm of the molecule; a dimerising Fc or GST; small tags and cut ends) VL: DIQMTQSPSSLSASVGDRVTITCKASEDIYNRLAWYQQKPGKVPKLLISGATSLETGVPSRFSGSGSGTDFTLTISSLQPEDVATYYCQQYWSLPWTFGGGTKVEIK VH: EVQLVQSGAEVKKPGASVKVSCKASGYTFTDYYMNWVRQAPGQRLEWMGDINPNHGDTGYNQKFTGRVTLTVDKSASTAYMELSSLRSEDTAVYYCARNFFYYGTTYGWYFDVWGQGTTVTVSS | MFI | 208

Now consider the entry below.
Query: Requested field: MFI. Item: Hab015VL5VH5a-hFc (scFv, part only; not given: scFv linker and human IgG1 Fc, V domains shown, not shown: another chain or arm of the molecule; a dimerising Fc or GST; small tags and cut ends) VL: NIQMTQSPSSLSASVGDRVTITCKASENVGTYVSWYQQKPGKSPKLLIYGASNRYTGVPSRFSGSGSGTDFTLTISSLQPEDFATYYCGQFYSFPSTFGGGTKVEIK VH: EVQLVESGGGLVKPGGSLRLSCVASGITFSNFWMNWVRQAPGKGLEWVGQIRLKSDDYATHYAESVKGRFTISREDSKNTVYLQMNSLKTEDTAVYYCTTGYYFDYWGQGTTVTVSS
Reply: 424

Data provenance: patent EP4786492A1
